Test system: Leishmania mexicana
ASSAY NAME: Inhibition of Leishmania mexicana cathepsin L-like protease CPB2.8 at 20 uM using Z-Phe-Arg-AMC as substrate by fluorometric assay relative to control
Collected inhibition values appear next to each entry.

Sample answers from the record:
CC(C)C[C@H](NC(=O)OC(C)(C)C)C(=O)N1CCC[C@@H]1C(=O)N1C(C(=O)OCc2ccccc2)C1C(=O)OCc1ccc2ccccc2c1 (mixture of isomers) | > 50%
CC(C)C[C@H](NC(=O)OC(C)(C)C)C(=O)N1CCC[C@@H]1C(=O)N1C(C(=O)OCCCc2ccccc2)C1C(=O)OCCCc1ccccc1 (mixture of isomers) | > 50%
CC(C)C[C@H](NC(=O)OC(C)(C)C)C(=O)N1CCC[C@@H]1C(=O)N1C(C(=O)O)C1C(=O)OCC1CCCCC1 (mixture of isomers) | > 50%
CC(C)C[C@H](NC(=O)OC(C)(C)C)C(=O)N1CCC[C@@H]1C(=O)N1C(C(=O)OCCCc2ccccc2)C1C(=O)OCc1ccccc1 (mixture of isomers) | > 50%
CCOC(=O)C1C(C(=O)OCc2ccccc2)N1C(=O)[C@H]1CCCN1C(=O)[C@H](CC(C)C)NC(=O)OC(C)(C)C (mixture of isomers) | < 50%

# evaluate next
Input: Request body: readout inhibition, system Leishmania mexicana, query CC(C)C[C@H](NC(=O)OC(C)(C)C)C(=O)N1CCC[C@@H]1C(=O)N1C(C(=O)OCC2CCCCC2)C1C(=O)OCC1CCCCC1 (mixture of isomers) . Return the value.
Output: > 50%

---

Reported inhibition values are given for each entry in this list.
MEASURED ON: Rhodesain (Trypanosoma brucei rhodesiense)
ASSAY NAME: Inhibition of Trypanosoma brucei rhodesiense rhodesain at 20 uM using Z-Phe-Arg-AMC as substrate by fluorometric assay relative to control

Field: example entries. Status: answers known.
CC(C)C[C@H](NC(=O)OC(C)(C)C)C(=O)N1CCC[C@@H]1C(=O)N1C(C(=O)OCc2ccccc2)C1C(=O)OCC1CCCCC1 (mixture of isomers) | < 50%
CC(C)C[C@H](NC(=O)OC(C)(C)C)C(=O)N1CCC[C@@H]1C(=O)N1C(C(=O)O)C1C(=O)OCC1CCCCC1 (mixture of isomers) | > 50%
CC(C)C[C@H](NC(=O)OC(C)(C)C)C(=O)N1CCC[C@@H]1C(=O)N1C(C(=O)OCCc2ccccc2)C1C(=O)OCCc1ccccc1 (mixture of isomers) | < 50%
CC(C)C[C@H](NC(=O)OC(C)(C)C)C(=O)N1CCC[C@@H]1C(=O)N1C(C(=O)OCc2ccccc2)C1C(=O)OCc1ccccc1 (mixture of isomers) | > 50%
CCOC(=O)C1C(C(=O)OCc2ccccc2)N1C(=O)[C@H]1CCCN1C(=O)[C@H](CC(C)C)NC(=O)OC(C)(C)C (mixture of isomers) | < 50%

Input: Requested read-out inhibition, target or system Rhodesain (Trypanosoma brucei rhodesiense), entry CC(C)C[C@H](NC(=O)OC(C)(C)C)C(=O)N1CCC[C@@H]1C(=O)N1C(C(=O)OCCCc2ccccc2)C1C(=O)OCc1ccccc1 (mixture of isomers)
Output: < 50%

Input: Entry to check: CC(C)C[C@H](NC(=O)OC(C)(C)C)C(=O)N1CCC[C@@H]1C(=O)N1C(C(=O)O)C1C(=O)OC(C)(C)C (mixture of isomers)
Output: < 50%

---

MEASURED ON: Cathepsin B-like protease (Leishmania major, UniProt P90627)
Sequence (P90627 whole entry): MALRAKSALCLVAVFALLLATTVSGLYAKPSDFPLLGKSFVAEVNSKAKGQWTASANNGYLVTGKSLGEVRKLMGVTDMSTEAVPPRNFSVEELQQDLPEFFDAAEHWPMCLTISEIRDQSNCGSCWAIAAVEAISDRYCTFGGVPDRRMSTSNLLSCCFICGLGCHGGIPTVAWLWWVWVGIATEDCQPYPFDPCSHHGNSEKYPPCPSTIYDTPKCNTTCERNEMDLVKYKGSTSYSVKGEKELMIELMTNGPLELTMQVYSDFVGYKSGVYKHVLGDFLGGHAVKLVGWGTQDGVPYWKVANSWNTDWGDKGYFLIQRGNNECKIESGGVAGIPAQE
PROPERTY MEASURED: Ki (µM)
Kindly answer with a numeric value in µM, unit omitted.

Input: State its Ki on Cathepsin B-like protease (Leishmania major, UniProt P90627): `CC(C)C[C@H](NC(=O)OC(C)(C)C)C(=O)N1CCC[C@@H]1C(=O)N1[C@@H](C(=O)OCc2ccccc2)[C@@H]1C(=O)OCc1ccccc1`
Output: 18.2

---

MEASURED ON: UniProt:P25779
ASSAY NAME: Inhibition of Trypanosoma cruzi cruzain using Z-Phe-Arg-AMC as substrate by fluorometric assay
Entries and their pKi values follow.
Scale: negative log10 of molar concentration, which is what pKi denotes.

Past entries and their recorded results:
CC(C)C[C@@H](NC(=O)OC(C)(C)C)C(=O)N1CCC[C@H]1C(=O)N1[C@@H](C(=O)OCc2ccccc2)[C@@H]1C(=O)OCc1ccccc1 | 4.51
CC(C)C[C@H](NC(=O)OC(C)(C)C)C(=O)N1CCC[C@@H]1C(=O)N1C(C(=O)OCCc2ccccc2)C1C(=O)OCCc1ccccc1 (mixture of isomers) | 5.11
CC(C)C[C@H](NC(=O)OC(C)(C)C)C(=O)N1CCC[C@@H]1C(=O)N1[C@H](C(=O)OCc2ccccc2)[C@H]1C(=O)OCc1ccccc1 | 6.05
CC(C)C[C@H](NC(=O)OC(C)(C)C)C(=O)N1CCC[C@@H]1C(=O)N1C(C(=O)O)C1C(=O)OCC1CCCCC1 (mixture of isomers) | 6.15

Please look at the following compound next.
Input: # get_value(readout='pKi', item= CC(C)C[C@H](NC(=O)OC(C)(C)C)C(=O)N1CCC[C@@H]1C(=O)N1C(C(=O)OCc2ccccc2)C1C(=O)OCc1ccccc1 (mixture of isomers) )
Output: 5.74

---

MEASURED ON: Cruzipain (Trypanosoma cruzi) (UniProt P25779)
Sequence (P25779 123-467 limits assumed): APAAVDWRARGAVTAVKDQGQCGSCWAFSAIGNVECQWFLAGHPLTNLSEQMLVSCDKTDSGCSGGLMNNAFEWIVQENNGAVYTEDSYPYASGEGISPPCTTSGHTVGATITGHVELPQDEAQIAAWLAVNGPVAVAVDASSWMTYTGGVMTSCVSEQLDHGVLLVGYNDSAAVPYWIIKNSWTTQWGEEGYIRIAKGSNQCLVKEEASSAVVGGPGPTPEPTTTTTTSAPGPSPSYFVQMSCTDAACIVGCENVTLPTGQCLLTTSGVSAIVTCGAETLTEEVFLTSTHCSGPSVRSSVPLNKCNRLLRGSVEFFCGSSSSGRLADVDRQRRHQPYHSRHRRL
ASSAY NAME: Inhibition of Trypanosoma cruzi cruzain at 20 uM using Z-Phe-Arg-AMC as substrate by fluorometric assay relative to control
Quick list: inhibition per entry.

Consider the following illustrative entries.
CC(C)C[C@H](NC(=O)OC(C)(C)C)C(=O)N1CCC[C@@H]1C(=O)N1C(C(=O)OCCc2ccccc2)C1C(=O)OCc1ccccc1 (mixture of isomers) | > 50%
CC(C)C[C@H](NC(=O)OC(C)(C)C)C(=O)N1CCC[C@@H]1C(=O)N1C(C(=O)OCCCc2ccccc2)C1C(=O)OCCCc1ccccc1 (mixture of isomers) | < 50%
CC(C)C[C@H](NC(=O)OC(C)(C)C)C(=O)N1CCC[C@@H]1C(=O)N1C(C(=O)OCC2CCCCC2)C1C(=O)OCC1CCCCC1 (mixture of isomers) | < 50%
CC(C)C[C@H](NC(=O)OC(C)(C)C)C(=O)N1CCC[C@@H]1C(=O)N1C(C(=O)OCc2ccccc2)C1C(=O)OC(C)(C)C (mixture of isomers) | < 50%
CC(C)C[C@H](NC(=O)OC(C)(C)C)C(=O)N1CCC[C@@H]1C(=O)N1C(C(=O)O)C1C(=O)OCC1CCCCC1 (mixture of isomers) | > 50%
CC(C)C[C@H](NC(=O)OC(C)(C)C)C(=O)N1CCC[C@@H]1C(=O)N1C(C(=O)O)C1C(=O)OC(C)(C)C (mixture of isomers) | < 50%
CCOC(=O)C1C(C(=O)O)N1C(=O)[C@H]1CCCN1C(=O)[C@H](CC(C)C)NC(=O)OC(C)(C)C (mixture of isomers) | < 50%
CC(C)C[C@H](NC(=O)OC(C)(C)C)C(=O)N1CCC[C@@H]1C(=O)N1C(C(=O)OCc2ccccc2)C1C(=O)OCc1ccc2ccccc2c1 (mixture of isomers) | < 50%

As a next step, examine the compound that follows.
Input: Endpoint output: inhibition of CC(C)C[C@H](NC(=O)OC(C)(C)C)C(=O)N1CCC[C@@H]1C(=O)N1C(C(=O)OCc2ccccc2)C1C(=O)OCc1ccccc1 (mixture of isomers) . Value?
Output: > 50%

---

Entries and their measured inhibition follow.
MEASURED ON: Rhodesain (Trypanosoma brucei rhodesiense) (UniProt Q95PM0)
Sequence (Q95PM0 1-450): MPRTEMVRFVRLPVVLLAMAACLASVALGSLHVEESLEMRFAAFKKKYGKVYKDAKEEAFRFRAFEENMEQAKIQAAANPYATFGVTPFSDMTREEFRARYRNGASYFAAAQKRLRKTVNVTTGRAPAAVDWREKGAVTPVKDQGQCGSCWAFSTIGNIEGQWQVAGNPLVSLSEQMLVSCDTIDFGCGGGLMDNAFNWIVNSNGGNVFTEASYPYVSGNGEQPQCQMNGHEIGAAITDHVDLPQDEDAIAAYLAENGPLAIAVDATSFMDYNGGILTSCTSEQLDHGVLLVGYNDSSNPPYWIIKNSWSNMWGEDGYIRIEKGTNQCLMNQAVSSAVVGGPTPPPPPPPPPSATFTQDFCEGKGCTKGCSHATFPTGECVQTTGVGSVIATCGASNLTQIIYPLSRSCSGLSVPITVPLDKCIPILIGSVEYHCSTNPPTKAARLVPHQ
ASSAY NAME: Inhibition of Trypanosoma brucei rhodesiense rhodesain at 20 uM using Z-Phe-Arg-AMC as substrate by fluorometric assay relative to control

Below, each entry is followed by its recorded inhibition result.
CC(C)C[C@H](NC(=O)OC(C)(C)C)C(=O)N1CCC[C@@H]1C(=O)N1C(C(=O)OCC2CCCCC2)C1C(=O)OCC1CCCCC1 (mixture of isomers) | < 50%
CC(C)C[C@H](NC(=O)OC(C)(C)C)C(=O)N1CCC[C@@H]1C(=O)N1C(C(=O)O)C1C(=O)OCCc1ccccc1 (mixture of isomers) | > 50%
CCOC(=O)C1C(C(=O)O)N1C(=O)[C@H]1CCCN1C(=O)[C@H](CC(C)C)NC(=O)OC(C)(C)C (mixture of isomers) | < 50%

Input: Fill blank: measured inhibition of the compound CC(C)C[C@H](NC(=O)OC(C)(C)C)C(=O)N1CCC[C@@H]1C(=O)N1C(C(=O)O)C1C(=O)OCCCc1ccccc1 (mixture of isomers) is ____.
Output: < 50%

Input: Field entry: CC(C)C[C@H](NC(=O)OC(C)(C)C)C(=O)N1CCC[C@@H]1C(=O)N1C(C(=O)OCc2ccccc2)C1C(=O)OC(C)(C)C (mixture of isomers)
Output: < 50%
